For each record, write down the corresponding melting point.

Prompt: I'd like to know its melting point. The compound in question is O=C(Cc1ccc(Cl)c(Oc2cccc(Cl)c2)c1)Nc1ccccc1 [Compound I-192]
Response: 126.8 to 127.7 °C

Prompt: I'd like to know its melting point. The compound in question is Cc1cc(S(=O)(=O)NC2CCOCC2)ccc1NC(=O)Cc1ccc(C)c(Oc2cc(Cl)cc(C#N)c2)c1 [Compound I-128]
Response: 171.7 to 172.6 °C

Prompt: I'd like to know its melting point. The compound in question is Cc1ccncc1NC(=O)Cc1ccc(C)c(Oc2cc(Cl)cc(C#N)c2)c1 [Compound I-224]
Response: 158.6 to 159.1 °C

Prompt: I'd like to know its melting point. The compound in question is CCc1ccc(CC(=O)Nc2ccc(S(N)(=O)=O)cc2Cl)c(F)c1Oc1cc(C#N)cc(C(F)F)c1 [Compound I-179]
Response: 239.6 to 240.7 °C

Prompt: I'd like to know its melting point. The compound in question is N#Cc1cc(C#N)cc(Oc2c(Cl)ccc(CC(=O)Nc3ccc(S(N)(=O)=O)cc3)c2F)c1 [Compound I-9]
Response: 135.7 to 138.1 °C

Prompt: I'd like to know its melting point. The compound in question is Cc1cc(OCC(=O)O)ccc1NC(=O)Cc1ccc(C)c(Oc2cc(Cl)cc(C#N)c2)c1 [Compound I-234]
Response: 174.8 to 176.4 °C

Prompt: I'd like to know its melting point. The compound in question is Cc1ccc(CC(=O)Nc2ccc(CC(=O)O)cc2Cl)cc1Oc1cc(Cl)cc(C#N)c1 [Compound I-236]
Response: 159.6 to 160 °C

Prompt: I'd like to know its melting point. The compound in question is CCc1ccc(CC(=O)Nc2ccc(S(N)(=O)=O)cc2C)c(F)c1Oc1cc(C#N)cc(C(F)F)c1 [Compound I-180]
Response: 237.6 to 238.4 °C

Prompt: I'd like to know its melting point. The compound in question is Cc1cc(S(=O)(=O)NC2CCC(O)CC2)ccc1NC(=O)Cc1ccc(C)c(Oc2cc(Cl)cc(C#N)c2)c1 (stereo not drawn) [Compound I-121]
Response: 195.1 to 197.7 °C

Prompt: I'd like to know its melting point. The compound in question is Cc1cc(S(N)(=O)=O)ccc1NC(=O)Cc1ccc(Cl)c(C(=O)c2cc(Cl)cc(Cl)c2)c1 [Compound I-252]
Response: 263 to 264.4 °C

Prompt: I'd like to know its melting point. The compound in question is Cc1cc(C(=O)CN2CCN(C)CC2)ccc1NC(=O)Cc1ccc(C)c(Oc2cc(Cl)cc(C#N)c2)c1 [Compound I-159]
Response: 62.3 to 64.1 °C

Prompt: I'd like to know its melting point. The compound in question is CCC(=O)N(C)S(=O)(=O)c1ccc(NC(=O)Cc2ccc(Cl)c(Oc3cc(Cl)cc(C#N)c3)c2F)c(C)c1 [Compound I-99]
Response: 212 to 216.9 °C

Prompt: I'd like to know its melting point. The compound in question is "COCC(=O)NS(=O)(=O)c1ccc(NC(=O)Cc2ccc(Cl)c(Oc3cc(Cl)cc(C#N)c3)c2F)c(Cl)c1.[Na]"
Response: 151.7 to 152.3 °C

Prompt: I'd like to know its melting point. The compound in question is Cc1cc(CC(=O)Nc2ccc(S(N)(=O)=O)cc2)cc(C(=O)c2cc(Cl)cc(Cl)c2)c1 [Compound I-269]
Response: 226 to 227.9 °C

Prompt: I'd like to know its melting point. The compound in question is CSCCNS(=O)(=O)c1ccc(NC(=O)Cc2ccc(C)c(Oc3cc(Cl)cc(C#N)c3)c2)c(C)c1 [Compound I-130]
Response: 155.6 to 156.6 °C

Prompt: I'd like to know its melting point. The compound in question is Cc1cc(CC(=O)Nc2ccc(S(N)(=O)=O)cc2C)cc(Oc2cc(C#N)ccc2Cl)c1 [Compound I-147]
Response: 200.3 to 201.1 °C

Prompt: I'd like to know its melting point. The compound in question is O=C(Cc1ccc(Cl)c(C(=O)c2cc(Cl)cc(Cl)c2)c1)Nc1ccccc1Cl [Compound I-247]
Response: 197.2 to 198.1 °C

Prompt: I'd like to know its melting point. The compound in question is COc1ccc(CC(=O)Nc2ccc(S(N)(=O)=O)cc2C)c(F)c1Oc1cc(Cl)cc(C#N)c1 [Compound I-191]
Response: 239.9 to 240.8 °C

Prompt: I'd like to know its melting point. The compound in question is "N#Cc1cc(Cl)cc(Oc2c(Cl)ccc(CC(=O)Nc3ccc(S(=O)(=O)NC(=O)CO)cc3Cl)c2F)c1.[Na]"
Response: 178 to 179.5 °C

Prompt: I'd like to know its melting point. The compound in question is "COCCC(=O)NS(=O)(=O)c1ccc(NC(=O)Cc2ccc(Cl)c(Oc3cc(Cl)cc(C#N)c3)c2F)c(Cl)c1.[Na]"
Response: 133.1 to 140.7 °C

Prompt: I'd like to know its melting point. The compound in question is Cc1ccc(CC(=O)Nc2ccc(S(N)(=O)=O)cc2Cl)c(F)c1Oc1cc(C#N)cc(C(F)F)c1 [Compound I-84]
Response: 218 to 218.7 °C

Prompt: I'd like to know its melting point. The compound in question is Cc1ccc(C#N)cc1C(=O)c1cc(CC(=O)Nc2ccccc2Cl)ccc1C [Compound I-267]
Response: 129.4 to 131.6 °C

Prompt: I'd like to know its melting point. The compound in question is Cc1cc(S(N)(=O)=O)ccc1NC(=O)Cc1ccc(Cl)c(C(=O)c2cc(Cl)ccc2Cl)c1 [Compound I-249]
Response: 214.9 to 218.8 °C

Prompt: I'd like to know its melting point. The compound in question is N#Cc1cc(C#N)cc(Oc2cc(CC(=O)Nc3ccc(S(N)(=O)=O)cc3)ccc2Cl)c1 [Compound I-2]
Response: 218 to 219 °C

Prompt: I'd like to know its melting point. The compound in question is CCc1ccc(CC(=O)Nc2ccc(S(N)(=O)=O)cc2)cc1Oc1cc(C#N)cc(C(F)F)c1 [Compound I-91]
Response: 188 to 198 °C

Prompt: I'd like to know its melting point. The compound in question is CCOC(=O)C(=O)Nc1ccc(NC(=O)Cc2ccc(C)c(Oc3cc(Cl)cc(C#N)c3)c2)c(C)c1 [Compound I-178]
Response: 182.5 to 183.9 °C

Prompt: I'd like to know its melting point. The compound in question is O=C(Cc1cc2c(c(C(=O)c3ccc(Cl)cc3)c1)OCC2)Nc1ccccc1Cl [Compound I-240]
Response: 141.1 to 144.9 °C

Prompt: I'd like to know its melting point. The compound in question is CSCCCNS(=O)(=O)c1ccc(NC(=O)Cc2ccc(C)c(Oc3cc(Cl)cc(C#N)c3)c2)c(C)c1 [Compound I-131]
Response: 159.9 to 162.8 °C

Prompt: I'd like to know its melting point. The compound in question is O=C(Cc1ccc(Cl)c(C(=O)c2cc(Cl)ccc2Cl)c1)Nc1ccccc1Cl [Compound I-248]
Response: 121 to 123.5 °C

Prompt: I'd like to know its melting point. The compound in question is CCc1ccc(CC(=O)Nc2ccc(S(N)(=O)=O)cc2Cl)cc1Oc1cc(C#N)cc(C(F)F)c1 [Compound I-140]
Response: 191.8 to 192.5 °C
